// reported EC50 (read off the curve) for each item listed
experimental-system: T1, cynomolgus monkey C-KIT, full length, on CHO-K1 cells (cynomolgus monkey)
T1 construct: whole, on cells; also called cyno C-KIT+ CHO-K1 cells
assay-notes: flow cytometry, C-KIT-transfected CHO-K1 cells, IgG1 format
measured-quantity: EC50 (read off the curve)

binder="MH5, human IgG1 (antibody, V domains shown, IgG1; also called C-KIT-MH5; C-KIT-MHS) VH: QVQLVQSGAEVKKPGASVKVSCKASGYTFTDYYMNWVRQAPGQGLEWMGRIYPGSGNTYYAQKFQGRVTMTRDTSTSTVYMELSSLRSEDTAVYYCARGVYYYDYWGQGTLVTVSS VL: DIQMTQSPSSLSASVGDRVTITCRASQGIRTNLAWFQQKPGKAPKSLIYSASSLQSGVPSRFSGSGSGTDFTLTISSLQPEDFATYYCQQYANYPRTFGGGTKVEIK" assay_value="~0.5 µg/mL"
binder="MH5.24 (antibody, IgG1, V domains shown, IgG1; also called C-KIT-MH5.24) VH: QVQLVQSGAEVKKPGASVKVSCKASGYTFTDFYMNWVRQAPGQGLEWMGRIYPASGNTYYAQKFQGRVTMTRDTSTSTVYMELSSLRSEDTAVYYCARGVWYFDTWGQGTLVTVSS VL: DIQMTQSPSSLSASVGDRVTITCRASQGIRTNLAWFQQKPGKAPKSLIYAASSLQSGVPSRFSGSGSGTDFTLTISSLQPEDFATYYCQQYANYPRTFGGGTKVEIK" assay_value="~0.2 µg/mL"
binder="MH5.22 (antibody, IgG1, V domains shown, IgG1; also called C-KIT-MH5.22) VH: QVQLVQSGAEVKKPGASVKVSCKASGYTFTDFYMNWVRQAPGQGLEWMGRIYPASGNTYYAQKFQGRVTMTRDTSTSTVYMELSSLRSEDTAVYYCARGVWYYDYWGQGTLVTVSS VL: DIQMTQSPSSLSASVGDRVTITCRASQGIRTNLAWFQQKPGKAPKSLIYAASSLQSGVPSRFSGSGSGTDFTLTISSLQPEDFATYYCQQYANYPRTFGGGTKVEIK" assay_value="~0.4 µg/mL"
binder="MH5.2 (antibody, IgG1, V domains shown, IgG1; also called C-KIT-MH5.2) VH: QVQLVQSGAEVKKPGASVKVSCKASGYTFTDFYMNWVRQAPGQGLEWMGRIYPGTGNTYYAQKFQGRVTMTRDTSTSTVYMELSSLRSEDTAVYYCARGVWYYDYWGQGTLVTVSS VL: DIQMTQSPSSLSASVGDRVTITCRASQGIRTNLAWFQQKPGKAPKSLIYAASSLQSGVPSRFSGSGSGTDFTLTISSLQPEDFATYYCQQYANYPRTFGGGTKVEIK" assay_value="~0.2 µg/mL"
